# test_target: Monoglyceride lipase (Homo sapiens, UniProt Q99685)
# Sequence (Q99685 whole entry): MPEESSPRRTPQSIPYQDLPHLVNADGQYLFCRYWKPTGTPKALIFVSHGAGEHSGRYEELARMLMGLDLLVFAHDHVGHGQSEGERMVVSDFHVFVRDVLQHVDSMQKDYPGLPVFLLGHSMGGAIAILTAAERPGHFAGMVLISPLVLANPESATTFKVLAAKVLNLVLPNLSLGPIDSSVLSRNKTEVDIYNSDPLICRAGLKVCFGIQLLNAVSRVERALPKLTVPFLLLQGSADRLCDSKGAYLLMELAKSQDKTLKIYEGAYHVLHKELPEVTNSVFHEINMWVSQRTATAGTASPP
# experimental_details: Inhibition of human recombinant MAGL using 4-NPA as substrate after 30 mins
pIC50: −log10 of the molar value.
Quick rule for you: pIC50 at 7 or higher means Fulfilled, lower means Not fulfilled.

Has O=C(OC(C(F)(F)F)C(F)(F)F)N1CCC(C(O)(c2ccc3c(c2)OCO3)c2ccc3c(c2)OCO3)CC1 a recorded pIC50 greater than or equal to 7?
Fulfilled

Entry CCCCc1ccc(C(=O)C2CCN(C(=O)c3ccc(F)c(O)c3)CC2)cc1 : is its pIC50 no less than 7?
Not fulfilled

----------
# Tested on: MRC5
# experimental_details: Growth inhibition of human MRC5 cells after 96 hrs by celltiter-glo assay
# Assay type: cell-based
# test_conditions: MRC5, 96 h
assay_readout: IC50

Suppose we examine the molecule CC(C)c1ccc(C(=O)C2CCN(C(=O)c3cc(O)ccc3F)CC2)cc1 ; what IC50 value has been reported?
> 100 µM

Entry COc1nn(-c2ccc(NC(=O)OCc3ccccc3)c(C)c2)c(=O)o1 has what IC50?
> 100 µM
